# targetOfAssay: Human immunodeficiency virus type 1 protease (Human immunodeficiency virus 1, UniProt Q72874)
pKi: −log10 of the molar value.
Please mark true if the recorded pKi is equal to or greater than 8, and false if it falls below.

- compound: "NC(=O)c1ccc(S(=O)(=O)Nc2cccc(C(c3c(O)c4c(oc3=O)CCCCCC4)C3CC3)c2)cc1 (stereo not given)"
  discreteLabel: "true"
- compound: "CCCCOc1ccc(S(=O)(=O)Nc2cccc(C(c3c(O)c4c(oc3=O)CCCCCC4)C3CC3)c2)cc1 (stereo not given)"
  discreteLabel: "false"

Now turn to the next compound.
IN: # bool: pKi of CC(C)C(c1cccc(NS(=O)(=O)c2cn(C)cn2)c1)c1c(O)c2c(oc1=O)CCCCCC2 (stereo not given) >= 8
OUT: true

* * *

half-life overview
# procedureSummary: Half-life was measured after intravenous administration of 2.5 mg/kg of drug in male Dawley rats
# Type: ADME, organism-based
# Design: dose 2.5 mg/kg, route intravenous
# assayConditions: Sprague-Dawley, rat, in vivo
# include the unit after the value

Some solved cases for reference:
- compound: "O=c1c2c(oc(O)c1[C@H](c1cccc(NS(=O)(=O)c3cccc4cccnc34)c1)C1CC1)CCCCCC2"
  half-life: "1.8 h"
- compound: "N#Cc1ccc(S(=O)(=O)Nc2cccc(C(c3c(O)c4c(oc3=O)CCCCCC4)C3CC3)c2)cc1 (stereo not drawn)"
  half-life: "3 h"

Now look at this one.
IN: What does the record list as half-life for Cn1cnc(S(=O)(=O)Nc2cccc([C@@H](c3c(O)c4c(oc3=O)CCCCCC4)C3CC3)c2)c1 ?
OUT: 2.4 h

* * *

# System: Human immunodeficiency virus 1
# procedureSummary: Antiviral activity in HIV-1 infected H9 cells
# Type: functional
# assayConditions: Human immunodeficiency virus 1, H9; read-out: ED50 (the source's name)
pEC50 overview
// field semantics: pEC50 = negative decimal log of concentration (mol/L)

- molecule: "O=c1c2c(oc(O)c1C(c1cccc(NS(=O)(=O)c3ccc(Cl)cc3)c1)C1CC1)CCCCCC2 (stereo not given)"
  targetOfAssay: "Human immunodeficiency virus 1"
  valueType: "pEC50"
  reportedValue: 5.70
- molecule: "O=c1c2c(oc(O)c1C(c1cccc(NS(=O)(=O)c3cnccn3)c1)C1CC1)CCCCCC2 (stereo not given)"
  targetOfAssay: "Human immunodeficiency virus 1"
  valueType: "pEC50"
  reportedValue: 5.70
- molecule: "N#Cc1ccc(S(=O)(=O)Nc2cccc([C@@H](c3c(O)oc4c(c3=O)CCCCCC4)C3CC3)c2)cc1"
  targetOfAssay: "Human immunodeficiency virus 1"
  valueType: "pEC50"
  reportedValue: 5.92
- molecule: "O=c1c2c(oc(O)c1C(c1cccc(NS(=O)(=O)c3ccc(F)cc3F)c1)C1CC1)CCCCCC2 (stereo not given)"
  targetOfAssay: "Human immunodeficiency virus 1"
  valueType: "pEC50"
  reportedValue: 5.38

IN: What does the record list as pEC50 for CCCC(c1cccc(NS(=O)(=O)c2ccc(C#N)cc2)c1)c1c(O)c2c(oc1=O)CCCCCC2 (stereo not given) ?
OUT: 5.41

IN: Also check N#Cc1ccc(S(=O)(=O)Nc2cccc(C(c3c(O)oc4c(c3=O)CCCCCC4)C3CC3)c2)nc1 (stereo not given)
OUT: 6.05

* * *

# targetOfAssay: Human immunodeficiency virus type 1 protease (Human immunodeficiency virus 1)
valueType: pKi
// field semantics: pKi = negative decimal log of concentration (mol/L)

Some solved cases for reference:
- compound: "O=c1c2c(oc(O)c1[C@H](c1cccc(NS(=O)(=O)c3cccc4cccnc34)c1)C1CC1)CCCCCC2"
  targetOfAssay: "Human immunodeficiency virus type 1 protease (Human immunodeficiency virus 1)"
  reportedValue: 9.40
- compound: "O=c1c2c(oc(O)c1[C@@H](c1cccc(NS(=O)(=O)c3ccc(F)cc3)c1)C1CC1)CCCCCC2"
  targetOfAssay: "Human immunodeficiency virus type 1 protease (Human immunodeficiency virus 1)"
  reportedValue: 8.68
- compound: "O=c1c2c(oc(O)c1C(c1cccc(NS(=O)(=O)CCc3ccccc3)c1)C1CC1)CCCCCC2 (configuration not stated)"
  targetOfAssay: "Human immunodeficiency virus type 1 protease (Human immunodeficiency virus 1)"
  reportedValue: 8.41
- compound: "COc1ccc(S(=O)(=O)Nc2cccc(C(c3c(O)c4c(oc3=O)CCCCCC4)C3CC3)c2)cc1OC (configuration not stated)"
  targetOfAssay: "Human immunodeficiency virus type 1 protease (Human immunodeficiency virus 1)"
  reportedValue: 8.17
- compound: "CCS(=O)(=O)Nc1cccc(C(c2c(O)c3c(oc2=O)CCCCCC3)C2CC2)c1 (configuration not stated)"
  targetOfAssay: "Human immunodeficiency virus type 1 protease (Human immunodeficiency virus 1)"
  reportedValue: 8.00

IN: Request: pKi, test system Human immunodeficiency virus type 1 protease (Human immunodeficiency virus 1), entry CN(C)c1ccc(S(=O)(=O)Nc2cccc(C(c3c(O)c4c(oc3=O)CCCCCC4)C3CC3)c2)cc1 (configuration not stated)
OUT: 8.55

IN: Also check O=c1c2c(oc(O)c1C(c1cccc(NS(=O)(=O)c3ccccc3F)c1)C1CC1)CCCCCC2 (configuration not stated)
OUT: 7.96

IN: Also check CCCCS(=O)(=O)Nc1cccc(C(c2c(O)c3c(oc2=O)CCCCCC3)C2CC2)c1 (configuration not stated)
OUT: 8.34

IN: Also check O=c1c2c(oc(O)c1C(c1cccc(NS(=O)(=O)c3ccccc3C(F)(F)F)c1)C1CC1)CCCCCC2 (configuration not stated)
OUT: 7.68

IN: Also check [N-]=[N+]=Nc1ccc(S(=O)(=O)Nc2cccc(C(c3c(O)oc4c(c3=O)CCCCCC4)C3CC3)c2)cc1 (configuration not stated)
OUT: 8.59

IN: Also check COC(=O)c1cccc(S(=O)(=O)Nc2cccc(C(c3c(O)c4c(oc3=O)CCCCCC4)C3CC3)c2)c1 (configuration not stated)
OUT: 8.85

IN: Also check CCCC(c1cccc(NS(=O)(=O)c2ccc(F)cc2)c1)c1c(O)c2c(oc1=O)CCCCCC2 (configuration not stated)
OUT: 8.68

IN: Also check Cc1ccc(S(=O)(=O)Nc2cccc(C(c3c(O)c4c(oc3=O)CCCCCC4)C3CC3)c2)cc1 (configuration not stated)
OUT: 8.48

IN: Also check O=c1c2c(oc(O)c1C(c1cccc(NS(=O)(=O)c3ccc(Cl)c(Cl)c3Cl)c1)C1CC1)CCCCCC2 (configuration not stated)
OUT: 8.06

* * *

These records show pKi for UniProtKB Q72874.
// field semantics: pKi = negative decimal log of concentration (mol/L)

Some solved cases for reference:
- molecule: "CCC(c1ccccc1)c1c(O)c2ccccc2oc1=O (centres undefined)"
  reportedValue: 9.10
- molecule: "CCCc1ccc(S(=O)(=O)Nc2cccc(C(c3c(O)c4c(oc3=O)CCCCCC4)C3CC3)c2)cc1 (centres undefined)"
  reportedValue: 7.96
- molecule: "N#Cc1ccc(S(=O)(=O)Nc2cccc(C(c3c(O)oc4c(c3=O)CCCCCC4)C3CC3)c2)nc1 (centres undefined)"
  reportedValue: 9.00

Now look at this one.
IN: What does the record list as pKi for CCCCC(c1cccc(NS(=O)(=O)c2ccc(F)cc2)c1)c1c(O)c2c(oc1=O)CCCCCC2 (centres undefined) ?
OUT: 8.21

* * *

# System: Human immunodeficiency virus 1
# procedureSummary: Antiviral activity in HIV-1 infected H9 cells
# Assay type: functional
# assayConditions: Human immunodeficiency virus 1, H9; read-out: ED50 (the source's name)
Threshold-based label: EC50 under 5 µM gives 1, EC50 not under 5 µM gives -1.

See these solved cases before continuing.
- compound: "O=C(O)c1ccc(S(=O)(=O)Nc2cccc(C(c3c(O)c4c(oc3=O)CCCCCC4)C3CC3)c2)cc1 (stereo unspecified)"
  discreteLabel: -1
- compound: "COc1ccc(S(=O)(=O)Nc2cccc(C(c3c(O)c4c(oc3=O)CCCCCC4)C3CC3)c2)cc1 (stereo unspecified)"
  discreteLabel: 1

IN: Hi there! Is EC50 for CC(C)C(c1cccc(NS(=O)(=O)c2cccc3cccnc23)c1)c1c(O)c2c(oc1=O)CCCCCC2 (stereo unspecified) below 5 µM, do you know?
OUT: -1

IN: Also check CCCC(c1cccc(NS(=O)(=O)c2cccnc2)c1)c1c(O)c2c(oc1=O)CCCCCC2 (stereo unspecified)
OUT: -1

* * *

# Tested on: Human immunodeficiency virus 1
# procedureSummary: Antiviral activity in HIV-1 infected H9 cells
# Format: functional
# assayConditions: Human immunodeficiency virus 1, H9; read-out: ED50 (the source's name)
Threshold-based label: EC50 under 4 µM gives true, EC50 not under 4 µM gives false.

See these solved cases before continuing.
- molecule: "O=C(O)c1cccc(S(=O)(=O)Nc2cccc(C(c3c(O)c4c(oc3=O)CCCCCC4)C3CC3)c2)c1 (centres undefined)"
  discreteLabel: "false"
- molecule: "O=c1c2c(oc(O)c1[C@@H](c1cccc(NS(=O)(=O)c3ccccc3)c1)C1CC1)CCCCCC2"
  discreteLabel: "false"
- molecule: "N#Cc1ccccc1S(=O)(=O)Nc1cccc(C(c2c(O)oc3c(c2=O)CCCCCC3)C2CC2)c1 (centres undefined)"
  discreteLabel: "false"
- molecule: "O=c1c2c(oc(O)c1C(c1cccc(NS(=O)(=O)c3ccc4ccccc4c3)c1)C1CC1)CCCCCC2 (centres undefined)"
  discreteLabel: "true"
- molecule: "O=c1c2c(oc(O)c1[C@H](c1cccc(NS(=O)(=O)c3ccccc3)c1)C1CC1)CCCCCC2"
  discreteLabel: "true"

IN: Hi there! Is EC50 for NC(=O)c1ccc(S(=O)(=O)Nc2cccc(C(c3c(O)c4c(oc3=O)CCCCCC4)C3CC3)c2)cc1 (centres undefined) below 4 µM, do you know?
OUT: false

IN: Also check CCCCC(c1cccc(NS(=O)(=O)c2ccc(F)cc2)c1)c1c(O)c2c(oc1=O)CCCCCC2 (centres undefined)
OUT: false

IN: Also check [N-]=[N+]=Nc1ccc(S(=O)(=O)Nc2cccc(C(c3c(O)oc4c(c3=O)CCCCCC4)C3CC3)c2)cc1 (centres undefined)
OUT: true

IN: Also check CC(C)C(c1cccc(NS(=O)(=O)c2cccnc2)c1)c1c(O)c2c(oc1=O)CCCCCC2 (centres undefined)
OUT: false

IN: Also check O=c1c2c(oc(O)c1C(c1cccc(NS(=O)(=O)c3ccc4ccccc4n3)c1)C1CC1)CCCCCC2 (centres undefined)
OUT: false

IN: Also check CC(C)C(c1cccc(NS(=O)(=O)c2ccc(C#N)cc2)c1)c1c(O)c2c(oc1=O)CCCCCC2 (centres undefined)
OUT: false

IN: Also check O=c1c2c(oc(O)c1C(c1cccc(NS(=O)(=O)c3cccc4ccccc34)c1)C1CC1)CCCCCC2 (centres undefined)
OUT: true

IN: Also check CC(C)CC(c1cccc(NS(=O)(=O)c2cccnc2)c1)c1c(O)c2c(oc1=O)CCCCCC2 (centres undefined)
OUT: false

IN: Also check O=c1c2c(oc(O)c1C(c1cccc(NS(=O)(=O)c3cccc(Cl)c3)c1)C1CC1)CCCCCC2 (centres undefined)
OUT: true

IN: Also check O=c1c2c(oc(O)c1C(c1cccc(NS(=O)(=O)c3ccc(F)cc3)c1)C1CC1)CCCCCC2 (centres undefined)
OUT: true

IN: Also check N#Cc1ccc(S(=O)(=O)Nc2cccc(C(c3c(O)c4c(oc3=O)CCCCCC4)C3CC3)c2)cc1 (centres undefined)
OUT: true

IN: Also check O=c1c2c(oc(O)c1C(c1cccc(NS(=O)(=O)c3ccc(C(F)(F)F)cc3)c1)C1CC1)CCCCCC2 (centres undefined)
OUT: false
